Hello, the source for this data is the supplement of paper PMC11061612, in case you need it.

system: NCI-H720 (Other Solid Carcinomas); experiment: Bliss excess, mean over the matrix (fraction); higher = more synergy;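 note: after 72 h of two-drug dosing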
Classification field. Basis: Bliss excess. Definitions: category 1 (below -0.04), category 2 (-0.04 to below 0.008), category 3 (0.008 or more)

Answered cases to consult:
{"molecule": "Cc1cc2ncnn2cc1Nc1ncc2c(n1)n(C1CCOCC1)c(=O)n2C [AZD7648] + C=CCn1c(=O)c2cnc(Nc3ccc(N4CCN(C)CC4)cc3)nc2n1-c1cccc(C(C)(C)O)n1 [AZD1775] (first compound max 10 µM, partner max 1 µM)", "class": "category 1"}
{"molecule": "C=CCn1c(=O)c2cnc(Nc3ccc(N4CCN(C)CC4)cc3)nc2n1-c1cccc(C(C)(C)O)n1 [AZD1775] + O=C(c1cc(Cc2n[nH]c(=O)c3ccccc23)ccc1F)N1CCN(C(=O)C2CC2)CC1 [Olaparib] (first compound max 1 µM, partner max 10 µM)", "class": "category 2"}
{"molecule": "Cc1cc2ncnn2cc1Nc1ncc2c(n1)n(C1CCOCC1)c(=O)n2C [AZD7648] + C[C@@H]1COCCN1C2=NC(=NC(=C2)C3(CC3)[S@](=N)(=O)C)C4=C5C=CNC5=NC=C4 [AZD6738] (first compound max 10 µM, 7x7, partner max 10 µM)", "class": "category 1"}
{"molecule": "CN(C)CCCOc1ccc(-c2ccc3ncc4c(c3c2)n(C2CCOCC2)c(=O)n4C)cn1 [AZD0156] + C[C@@H]1COCCN1C2=NC(=NC(=C2)C3(CC3)[S@](=N)(=O)C)C4=C5C=CNC5=NC=C4 [AZD6738] (first compound max 1 µM, 7x7, partner max 10 µM)", "class": "category 2"}
{"molecule": "COc1cccc(OCCCN)c1-c1cc(Nc2cnc(C#N)cn2)n[nH]1 [Prexasertib] + CN(C)CCCOc1ccc(-c2ccc3ncc4c(c3c2)n(C2CCOCC2)c(=O)n4C)cn1 [AZD0156] (first compound max 1 µM, 7x7, partner max 1 µM)", "class": "category 3"}

Request: Classify this molecule: CN(C)CCCOc1ccc(-c2ccc3ncc4c(c3c2)n(C2CCOCC2)c(=O)n4C)cn1 [AZD0156] + C=CCn1c(=O)c2cnc(Nc3ccc(N4CCN(C)CC4)cc3)nc2n1-c1cccc(C(C)(C)O)n1 [AZD1775] (first compound max 1 µM, partner max 1 µM)
Response: category 2

Request: Classify this molecule: Cc1cc2ncnn2cc1Nc1ncc2c(n1)n(C1CCOCC1)c(=O)n2C [AZD7648] + CCN(CCO)CCCOc1ccc2c(Nc3cc(CC(=O)Nc4cccc(F)c4)[nH]n3)ncnc2c1 [AZD2811] (first compound max 10 µM, 7x7, partner max 1 µM)
Response: category 3

Request: Classify this molecule: COc1cc2c(cc1OCCCCCOc1cc3c(cc1OC)C(=O)N1C=C(C)C[C@H]1C=N3)N=C[C@@H]1CC(C)=CN1C2=O [SG3199] + O=C(c1cc(Cc2n[nH]c(=O)c3ccccc23)ccc1F)N1CCN(C(=O)C2CC2)CC1 [Olaparib] (first compound max 0.001 µM, 7x7, partner max 10 µM)
Response: category 2
